- System: G-CSF-stimulated pSTAT3
- RUN DESCRIPTION: Inhibition of G-CSF-stimulated pSTAT3 in Kasumi-1 cells (Luminex, pSTAT3/GAPDH)
- Format: cell-based
- CONDITION NOTES: Homo sapiens, Kasumi 1, Kasumi1 cells, G-CSF induced pSTAT3/GAPDH by Luminex
- Procedure: […] Total protein was assayed for pSTAT3 and GAPDH levels by Luminex. GAPDH-normalized pSTAT3 values were divided by the same for untreated cells and expressed as percentage. These values were plotted as a function of Log [M] compound, and IC50 calculated using GraphPad. Data from representative experiments from at least two repeats is shown. Luminex bead-based assay. Luminex bead-based assays were used to determine levels of pSTAT3, pSTAT1, pSTAT5, and GAPDH, as described (Bharadwaj et al., 2015). […]
pIC50: −log10 of the molar value.
PROPERTY MEASURED: pIC50

Item: O=C(O)COc1c(Br)cc(/C=C2\SC(=O)N(CC(=O)N3CCN(c4ccccc4)CC3)C2=O)cc1Br | pIC50: < 4.00

---

- System: MDA-MB-231 cells
- RUN DESCRIPTION: Anchorage-independent and dependent cell growth (MTT), MDA-MB-231
- Assay type: cell-based
- CONDITION NOTES: anchorage dependent, cell-culture treated plates, 48 hrs, NA = No Activity, read-out: Growth AD IC50 231
The following compounds are listed with their measured IC50 values.
State just the number; it will be interpreted in µM.

Below are worked cases with known answers.
Cc1cc(NS(=O)(=O)c2ccc(NC(=O)COc3ccc(C(C)(C)c4ccccc4)cc3)cc2)nc(C)n1; 39
COc1ccc(Br)cc1/C=C/C(=O)c1ccc(NC(C)=O)cc1; 3

For the next question, use this compound.
Item: COc1cc(/C=C2/SC(=O)NC2=O)ccc1OCc1ccc(Cl)cc1Cl | IC50: 25.6

---

- ASSAYED TARGET: STAT3 (aa 127-722) (Homo sapiens, UniProt P40763)
- Construct: STAT3 (aa 127-722) at a concentration of 200 nM
- Sequence (P40763 127-722 isoform P40763-3 limits assumed, species assumed): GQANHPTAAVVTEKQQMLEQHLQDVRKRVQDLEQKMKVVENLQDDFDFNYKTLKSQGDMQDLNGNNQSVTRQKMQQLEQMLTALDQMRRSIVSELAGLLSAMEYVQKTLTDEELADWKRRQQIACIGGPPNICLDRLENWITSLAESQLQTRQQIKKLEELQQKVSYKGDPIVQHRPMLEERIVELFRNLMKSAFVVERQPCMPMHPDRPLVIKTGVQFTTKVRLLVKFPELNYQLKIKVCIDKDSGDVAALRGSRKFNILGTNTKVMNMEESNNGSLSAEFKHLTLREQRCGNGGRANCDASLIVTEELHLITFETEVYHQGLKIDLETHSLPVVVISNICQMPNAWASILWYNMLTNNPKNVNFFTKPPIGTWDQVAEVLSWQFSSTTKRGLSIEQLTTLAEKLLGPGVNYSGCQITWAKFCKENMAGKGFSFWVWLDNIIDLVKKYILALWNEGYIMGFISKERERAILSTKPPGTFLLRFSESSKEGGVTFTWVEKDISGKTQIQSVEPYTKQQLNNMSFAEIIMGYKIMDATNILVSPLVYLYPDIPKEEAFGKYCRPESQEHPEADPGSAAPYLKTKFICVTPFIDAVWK
- RUN DESCRIPTION: SPR assay of STAT3 binding to immobilized EGFR pY1068 phosphododecapeptide
- CONDITION NOTES: pEGFRp-STAT3 binding (SPR) at pH 8, compound 100 μm
The following molecules are listed with their measured % of max binding at 100 μm values.

Below are worked cases with known answers.
CCCCOc1ccc(/C=C2\SC(=O)NC2=O)cc1OCC; 46.1%
CC(=O)c1ccc(NC(=O)C2C3CC/C=C\CCC32)cc1 (stereo not shown); 21.4%
O=C(O)c1ccc(-c2ccc(/C=C3/NC(=O)N(Cc4ccccc4F)C3=O)o2)cc1Cl; 28.4%
COc1ccc(CCNC(=O)c2cccc(C(=O)NCCc3ccc(OC)c(OC)c3)c2)cc1OC; 51.3%
O=C(O)COc1c(Br)cc(/C=C2\SC(=O)N(CC(=O)N3CCN(c4ccccc4)CC3)C2=O)cc1Br; 9.5%

Item: NC(=O)CCN1CCN(CCOC2Cc3cc(Cl)ccc3Sc3ccccc32)CC1 (stereo not shown) | % of max binding at 100 μm: 82.3%

Item: COc1ccc(Br)cc1/C=C/C(=O)c1ccc(NC(C)=O)cc1 | % of max binding at 100 μm: 22.1%

Item: CCOc1ccc(N(C(C)C(=O)Nc2cccc(Cl)c2C)S(C)(=O)=O)cc1 (stereo not shown) | % of max binding at 100 μm: 59.1%

Item: CC(=O)Nc1nc(C)c(-c2csc(Nc3ccccc3)n2)s1 | % of max binding at 100 μm: 28.3%

Item: O=C(Nc1ccc(Oc2ccccc2Cl)cc1)C1C2CC3C(OC(=O)C31)C2Br (stereo not shown) | % of max binding at 100 μm: 31.5%

All values here come from patent US20220168322A1.
